System: HEK293 pGL4
Test: Firefly_pGL signal, cmpd/DMSO (pGL4 control cells)
Type: cell-based
Conditions: Homo sapiens, HEK293, pGL4; 1% FBS; 2 uM; read-out: Firefly, pGL4, 1% FBS, cmpd/DMSO (mean)
Let's look at some compounds and their measured fold induction at 2 µM.
I only need the number, thanks.

Use the examples below as a reference point.
{"COMPOUND": "C[C@@H]1C[C@H](C)CN([C@H]2CS(=O)(=O)C[C@@H]2S(=O)(=O)c2ccccc2)C1", "fold induction at 2 µM": 1.2}
{"COMPOUND": "Cc1cc(S(=O)(=O)[C@H]2CS(=O)(=O)C[C@@H]2NCC2CCCO2)ccc1F (stereo partly shown)", "fold induction at 2 µM": 1.2}

Next compound, fold induction at 2 µM to be filled in.
Enquiry: Give the measured fold induction at 2 µM for "O=S1(=O)C[C@H](N2CCCCC2)[C@@H](S(=O)(=O)c2cccs2)C1"
Return: 1.2
